# Assay name: Solubility of inhibitors in different solvents
# Assay type: physicochemical
# Cond: organic solvent or mixture, thermodynamic from solid; PEG200, 30°C; read-out: Solubility
Measurement name: solubility at 24 h
Be sure to follow the number with its unit.

*Q* Recorded solubility at 24 h of O=C(Nc1ccc(OC(F)(F)F)cc1)N[C@H]1CC[C@H](Oc2ccc(C(=O)O)cc2)CC1 [1,728] , please.
*A* 195 mM

* * *

# Assay name: Solubility of inhibitors in different solvents
# Assay type: physicochemical
# Cond: organic solvent or mixture, thermodynamic from solid; Ethanol, 30°C; read-out: Solubility in mg/mL
Measurement name: solubility at 24 h (mg/mL)
Answers are plain numbers, in mg/mL.

*Q* Recorded solubility at 24 h of `O=C(Nc1ccc(OC(F)(F)F)cc1)N[C@H]1CC[C@H](Oc2ccc(C(=O)O)cc2)CC1` , please.
*A* 4

* * *

# Assay name: Solubility of inhibitors in different solvents
# Assay type: physicochemical
# Cond: organic solvent or mixture, thermodynamic from solid; PEG400, 40°C; read-out: Solubility in mg/mL
Measurement name: solubility at 24 h (mg/mL)
Answers are plain numbers, in mg/mL.

*Q* Recorded solubility at 24 h of `O=C(Nc1ccc(OC(F)(F)F)cc1)N[C@H]1CC[C@H](Oc2ccc(C(=O)O)cc2)CC1` , please.
*A* 25

* * *

# Assay name: Solubility of inhibitors in different solvents
# Type: physicochemical
# Cond: organic solvent or mixture, thermodynamic from solid; such as Carbitol and polyethylene glycol (PEG); read-out: solubility in numerous organic liquids used in the formulation of drugs
Measurement name: solubility at 24 h

*Q* Recorded solubility at 24 h of O=C(Nc1ccc(OC(F)(F)F)cc1)N[C@H]1CC[C@H](Oc2ccc(C(=O)O)cc2)CC1 [1,728] , please.
*A* > 20 mg/mL

* * *

# Assay name: Solubility of inhibitors in different solvents
# Format: physicochemical
# Cond: organic solvent or mixture, thermodynamic from solid; Ethanol, 30°C; read-out: Solubility
Measurement name: solubility at 24 h (mM)
One number for each entry, in mM.

*Q* Recorded solubility at 24 h of `O=C(Nc1ccc(OC(F)(F)F)cc1)N[C@H]1CC[C@H](Oc2ccc(C(=O)O)cc2)CC1` , please.
*A* 9

* * *

# Assay name: Solubility of inhibitors in different solvents
# Type: physicochemical
# Cond: organic solvent or mixture, thermodynamic from solid; DMSO, 40°C; read-out: Solubility in mg/mL
Measurement name: solubility at 24 h

*Q* Recorded solubility at 24 h of `O=C(Nc1ccc(OC(F)(F)F)cc1)N[C@H]1CC[C@H](Oc2ccc(C(=O)O)cc2)CC1` , please.
*A* 254 mg/mL

* * *

# Tested on: sEH activity from liver cytosol of Pig (Sus scrofa)
# Construct: The radioactive fluorescent assay was used with the liver crude extracts; from tissue; host or cells: pig liver cytosol (100,000 g supernatant)
# Sequence (Q6Q2C2 whole entry): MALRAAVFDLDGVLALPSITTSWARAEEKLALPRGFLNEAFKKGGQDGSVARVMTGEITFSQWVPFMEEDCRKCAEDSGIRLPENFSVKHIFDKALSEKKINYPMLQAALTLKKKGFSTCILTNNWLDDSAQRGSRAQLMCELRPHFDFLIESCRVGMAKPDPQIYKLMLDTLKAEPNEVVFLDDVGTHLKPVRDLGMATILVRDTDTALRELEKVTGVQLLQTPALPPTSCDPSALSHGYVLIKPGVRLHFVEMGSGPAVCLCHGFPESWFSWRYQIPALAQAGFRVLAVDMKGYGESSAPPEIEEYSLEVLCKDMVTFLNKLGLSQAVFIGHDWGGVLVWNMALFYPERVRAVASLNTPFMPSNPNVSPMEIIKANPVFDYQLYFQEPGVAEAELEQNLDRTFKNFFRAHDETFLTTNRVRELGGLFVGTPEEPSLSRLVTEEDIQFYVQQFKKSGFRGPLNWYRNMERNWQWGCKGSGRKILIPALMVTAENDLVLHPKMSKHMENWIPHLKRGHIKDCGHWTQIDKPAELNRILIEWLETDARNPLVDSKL
# Assay name: sEH inhibition potency (IC50), radioactive assay with [3H]t-DPPO, liver cytosol
# Assay type: biochemical
# Cond: liver cytosol; [3H]t-DPPO ([S]final = 5 μM) as substrate; read-out: IC50 (nM) Pig
Provide the reported IC50 of each item.
Numbers only, in nM.

Compound: N#CNC(=O)CCCCCCCCCCCNC(=O)NC12CC3CC(CC(C3)C1)C2 [1,845]
Tested on: sEH activity from liver cytosol of Pig (Sus scrofa)
IC50 / nM: 81

Pending compound:
*Q* Recorded IC50 of O=C(NCCCCOc1ccc(F)cc1)NC12CC3CC(CC(C3)C1)C2 [1,707] , please.
*A* 6
